assay: Standard protocol for determination of kcat and KM (continuous spectrophotometric assay, Acetyl CoA hydrolysis at 235 nm); type: biochemical; conditions: purified protein; about 23° C.; 20 mM HEPES pH 6.8, 10% ethylene glycol, 0.2 mM acetyl CoA
quantityKind: Kcat (s⁻¹)

>  <molecule>
SEQ ID NO: 477: GAT polypeptide (protein, 1_3D6, GAT polypeptide) MIEVKPINAEDTYELRHKILRPNQPIEACMYESDLLQGSFHLGGFYRGQLISIASFHQAEHSDLQGQKQYQLRGMATLEGFREQKAGSTLIKHAEEILRKKGADLLWCNARTSAAGYYKKLGFSEHGEIFDTPPAGPHILMYKKLT

>  <quantityKind>
Kcat

>  <experimentalResult>
3.77

$$$$
>  <molecule>
SEQ ID NO: 486: GAT polypeptide (protein, 3_11A10, GAT polypeptide) MLEVKPINAEDTYELRHRILRPNQPIEACMYESDLLRGAFHLGGYYRGKLISIASFHQAEHSELQGQKQYQLRGMATLEGYREQKAGSSLVKHAEEILRKRGADLLWCNARTSASGYYKKLGFSEQGEIFETPPVGPHILMYKRIT

>  <quantityKind>
Kcat

>  <experimentalResult>
2.2568

$$$$
>  <molecule>
SEQ ID NO: 456: GAT polypeptide (protein, 10_4G5, GAT polypeptide) MIEVKPINAEDTYELRHRILRPNQPIEACMFESDLLRGAFHLGGYYRGKLISIASFHQAEHSDLQGQKQYQLRGMATLEGYRDQKAGSSLIRHAEQILRKRGADLLWCNARTSASGYYKKLGFSEQGEIFDTPPVGPHILMYKRLT

>  <quantityKind>
Kcat

>  <experimentalResult>
2.9442

$$$$
